System: Kochia (Kochia scoparia)
Assay: Test A preemergence
Format: in vivo
Conditions: Bassia scoparia, pre-emergence, 240 h, 125 g ai/ha, preemergence; visual injury rating, 0 to 100 scale where 0 is no effect and 100 is complete control; approximately 10 d; read-out: Kochia plant response rating
# label = met if pest or weed control at 125 g/ha < 30% else not met

[
  {
    "MOLECULE": "COc1ccc(C(F)(F)F)cc1[C@H]1CN(C)C(=O)[C@@H]1C(=O)Nc1ccccc1SC [Compound 1185]",
    "LABEL VALUE": "met"
  },
  {
    "MOLECULE": "N#Cc1ccc([C@H]2CNC(=O)[C@@H]2C(=O)Nc2ccccc2F)cc1F [Compound 1191]",
    "LABEL VALUE": "met"
  },
  {
    "MOLECULE": "Cc1c(F)cccc1NC(=O)[C@H]1C(=O)N(C)C[C@@H]1c1ccc2c(c1)OC(F)(F)O2 [Compound 1252]",
    "LABEL VALUE": "not met"
  },
  {
    "MOLECULE": "O=C1NC[C@H](c2ccc(C(F)(F)F)cc2)C1C(=O)Nc1ccccc1CO (stereo partly shown) [Compound 1242]",
    "LABEL VALUE": "met"
  },
  {
    "MOLECULE": "CN1C[C@H](c2ccc(C(F)(F)F)cc2)[C@@H](C(=O)Nc2cccc(Cl)c2F)C1=O [Compound 1238]",
    "LABEL VALUE": "not met"
  },
  {
    "MOLECULE": "CN1C[C@H](c2cccc(C#N)c2)[C@@H](C(=O)Nc2cccc(F)c2F)C1=O [Compound 1286]",
    "LABEL VALUE": "not met"
  },
  {
    "MOLECULE": "CN1C[C@H](c2ccc(F)c(Br)c2)[C@@H](C(=O)Nc2cccc(F)c2F)C1=O [Compound 1234]",
    "LABEL VALUE": "not met"
  },
  {
    "MOLECULE": "CN1C[C@H](c2cc(Cl)cc(Cl)c2)[C@@H](C(=O)Nc2cccc(F)c2F)C1=O [Compound 1270]",
    "LABEL VALUE": "not met"
  },
  {
    "MOLECULE": "CN1C[C@H](c2ccc3c(c2)C(F)(F)C(F)(F)O3)[C@@H](C(=O)Nc2cccc(F)c2F)C1=O [Compound 1271]",
    "LABEL VALUE": "not met"
  },
  {
    "MOLECULE": "Cc1ccc([C@H]2CN(C)C(=O)[C@@H]2C(=O)Nc2c(F)c(F)c(F)c(F)c2F)cc1 [Compound 1292]",
    "LABEL VALUE": "not met"
  },
  {
    "MOLECULE": "CN1CC[C@H](c2ccc(C(F)(F)F)cc2)[C@@H](C(=O)Nc2cccc(F)c2F)C1=O [Compound 1225]",
    "LABEL VALUE": "not met"
  },
  {
    "MOLECULE": "Cc1cc([C@H]2CNC(=O)[C@@H]2C(=O)Nc2ccccc2C(F)(F)F)ccc1Cl [Compound 1245]",
    "LABEL VALUE": "met"
  },
  {
    "MOLECULE": "Cc1ccc([C@H]2CN(C)C(=O)[C@@H]2C(=O)Nc2ccccc2)cc1 [Compound 1291]",
    "LABEL VALUE": "not met"
  },
  {
    "MOLECULE": "O=C(Nc1ccccc1F)C1C(=O)N(CC(F)F)CC1c1cccc(C(F)(F)F)c1 (stereo not shown) [Compound 1293]",
    "LABEL VALUE": "met"
  },
  {
    "MOLECULE": "COc1ccc(C(F)(F)F)cc1[C@H]1CN(C)C(=O)[C@@H]1C(=O)Nc1cccc(F)c1F [Compound 1184]",
    "LABEL VALUE": "met"
  }
]

Hello, the source for this data is patent US12077503B2, in case you need it.
